B1: POU domain, class 2, transcription factor 3, residues 186 to 260; numbered along this chain, Q9UKI9 (parent)
chain: SDLEELEKFAKTFKQRRIKLGFTQGDVGLAMGKLYGNDFSQTTISRFEALNLSFKNMCKLKPLLEKWLNDAESSP

Variants of: B1
Assay: abundance fitness (aPCA) (normalised: wild type 0, dead -1); higher = more abundant; growth selection in yeast, the domain comes from the species named
Details: Homo sapiens
Class (required): determined from abundance fitness; valid ranges are bottom range: < -0.2; center range: ≥ -0.2 and < -0.06; top range: ≥ -0.06

Worked examples, 8 variants total:
W67R
bottom range
K61E
bottom range
S73W
center range
G28R
center range
P75W
center range
Y35D
top range
S53D
top range
E72L
center range

Here is another variant to look at.
Exam item: // bin(item) where item = L52M
Marked response: top range
